Tested on: Bacillus subtilis
Assay: cleaved RNA product abundance (RNA/gDNA barcode ratio) relative to median wild-type variant (ratio to wild type); higher = more accumulation of the downstream cleavage product
Settings: experiment (reporter, strain, medium): exp 4a: truncated aprE reporter, strain BJT201 with 2% xylose (RNase J1 expressed); cleavage site: cggR-gapA (positions -7 to +36 mutated)
Decision: cleaved RNA product abundance compared against 0.2; not below it gives satisfied, below it gives not satisfied.

biopolymer_sequence: ACAGACGAAGGAGCCGCAAAGAAGTTATTAAGGAATGAATAATCCCTCAATAAAAATATCTCTCACTTATTTAAA
classification: not satisfied

biopolymer_sequence: ACAGACGAAGGAGCCGCAAACAAGTTATTAAGGGATGAATAATCCCTCAATATAAATTTCTCTCACTTATTTAAA
classification: satisfied

biopolymer_sequence: ACAGACGAAGGAGCCGCAAAAAAGTTATTAAGGGATGAATAATCCGTCAATATAAATATCTCTCACTTATTTAAA
classification: satisfied

biopolymer_sequence: ACAGACGAAGGAGCCGCAAAGAAGTTATTAAAGGATGAATAATCCCTCAATATTAATATCTCTCACTTATTTAAA
classification: not satisfied

biopolymer_sequence: ACAGACGAAGGAGCCGCAAAGAAGTTATTAAGGGATGAAGAATCCCTCCATATAAATATCTCTCACTTATTTAAA
classification: satisfied

biopolymer_sequence: ACAGACGAAGGAGCCGCAAAGAAATTATTAAGGGATGAATAATACCTCAATATAAATATCTCTCACTTATTTAAA
classification: not satisfied

biopolymer_sequence: ACAGACGAAGGAGCCGCAAAGAAGTTATTAACGGATGAATAATCTCTCAATATAAATATCTCTCACTTATTTAAA
classification: not satisfied
